# target: Dipeptidyl peptidase 2 (Homo sapiens, UniProt Q9UHL4)
IC50: recorded values
Report the value in µM with no unit label.

Worked examples follow.
Cc1cc2ncc(C(=O)N3CCC([C@H](N)Cc4cc(F)c(F)cc4F)CC3)c(C)n2n1 : 16.8
N[C@H](Cc1cc(F)c(F)cc1F)C1CCN(C(=O)c2cc3ccccc3cn2)CC1 : 10.2
N[C@H](Cc1cc(F)c(F)cc1F)C1CCN(C(=O)c2ccc(F)cc2F)CC1 : 11.1

[Q] Which IC50 is reported with Dipeptidyl peptidase 2 (Homo sapiens, UniProt Q9UHL4) for this entry: N[C@H](Cc1cc(F)c(F)cc1F)C1CCN(C(=O)c2cnc3ncccn23)CC1 ?
[A] 10.8
